# target_or_test_system: Chromosomal, constitutive beta-lactamase enzyme (Enterobacter cloacae)
# Construct: Normally, therefore, the beta-lactamase has to be extracted from the cells for the purpose of the present invention; endogenous in cells
# Sequence (P05364 21-381): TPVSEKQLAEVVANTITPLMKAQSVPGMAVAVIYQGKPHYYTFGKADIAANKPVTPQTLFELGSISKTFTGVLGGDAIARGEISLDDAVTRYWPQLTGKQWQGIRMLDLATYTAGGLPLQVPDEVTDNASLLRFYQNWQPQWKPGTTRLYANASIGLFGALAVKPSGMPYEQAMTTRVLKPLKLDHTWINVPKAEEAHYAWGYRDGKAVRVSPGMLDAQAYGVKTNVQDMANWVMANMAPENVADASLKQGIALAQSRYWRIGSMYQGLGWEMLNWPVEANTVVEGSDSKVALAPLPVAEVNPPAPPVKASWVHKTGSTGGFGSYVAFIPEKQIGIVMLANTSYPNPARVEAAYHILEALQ
# experimental_details: Competitive assay with nitrocefin (RSAI)
# Assay type: biochemical, E. cloacae
Everything with RSAI lower than 0.08 is not satisfied; everything else, including exactly 0.08, is satisfied.

input: Does `CC1(C)S[C@@H]2[C@H](NC(=O)[C@H](NC(=O)N3CCNC3=O)c3ccccc3)C(=O)N2[C@H]1C(=O)O` have a reported RSAI of at least 0.08?
output: not satisfied

###

# System: HMS-1
# experimental_details: Competitive assay with nitrocefin (RSAI)
# Type: biochemical, E. coli 1946
Marks after values point to notes of the source that are not given here.
measured_parameter: RSAI

Past entries and their recorded results:
| compound | reported_measurement |
| --- | --- |
| CC1(C)[C@H](C(=O)O)N2C(=O)C[C@H]2S1(=O)=O [CP 45,899] | 0.025* |
| CC1(C)S[C@@H]2[C@H](NC(=O)[C@H](NC(=O)N3CCN(S(C)(=O)=O)C3=O)c3ccccc3)C(=O)N2[C@H]1C(=O)O [Mezlo-cillin, Mezlocillin] | 0.9 |
| O=C(Cc1cccs1)N[C@@H]1C(=O)N2C(C(=O)[O-])=C(C[n+]3ccccc3)CS[C@H]12 [Cephalo-ridine, cephaloridine] | 6 |

input: # query: RSAI of entry CC1(C)S[C@@H]2[C@H](NC(=O)[C@H](N)c3ccc(O)cc3)C(=O)N2[C@H]1C(=O)O [Amoxy-cillin, amoxycillin]
output: 0.8

###

# target_or_test_system: PSE-4 (Pseudomonas aeruginosa)
# Sequence (P16897 18-288): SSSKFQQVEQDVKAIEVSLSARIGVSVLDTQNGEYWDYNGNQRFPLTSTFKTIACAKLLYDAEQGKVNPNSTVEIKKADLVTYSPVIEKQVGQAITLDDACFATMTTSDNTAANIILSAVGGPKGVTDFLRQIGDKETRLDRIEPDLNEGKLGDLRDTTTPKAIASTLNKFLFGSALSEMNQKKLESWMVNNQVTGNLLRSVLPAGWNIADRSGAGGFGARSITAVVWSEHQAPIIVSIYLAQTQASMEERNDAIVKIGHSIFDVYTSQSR
# experimental_details: Competitive assay with nitrocefin (RSAI)
# Assay type: biochemical, Ps.aerug. 1559E
# Design: Normally, therefore, the beta-lactamase has to be extracted from the cells for the purpose of the present invention; endogenous in cells
measured_parameter: RSAI
Answer field: number only, no words.

| molecule | RSAI |
| --- | --- |
| CO/N=C(\C(=O)N[C@@H]1C(=O)N2C(C(=O)O)=C(CSc3nc(=O)c(=O)[nH]n3C)CS[C@H]12)c1csc(N)n1 [RO-13 9904] | 42 |
| CC1=C(C(=O)O)N2C(=O)[C@@H](NC(=O)[C@H](N)C3=CCC=CC3)[C@H]2SC1 [Cephra-dine, cephradine] | 80 |
| CCN1CCN(C(=O)N[C@@H](C(=O)N[C@@H]2C(=O)N3C(C(=O)O)=C(CSc4nnnn4C)CS[C@H]23)c2ccc(O)cc2)C(=O)C1=O [Cefopera-zone, cefoperazone] | 0.014 |
| O=C(Cc1cccs1)N[C@@H]1C(=O)N2C(C(=O)[O-])=C(C[n+]3ccccc3)CS[C@H]12 [Cephalo-ridine, cephaloridine] | 3.5 |
| CO[C@@]1(NC(=O)C(C(=O)O)c2ccc(O)cc2)C(=O)N2C(C(=O)O)=C(CSc3nnnn3C)CO[C@@H]21 (some centres unmarked) [Moxalactam] | 4.3 |

input: Find RSAI (PSE-4 (Pseudomonas aeruginosa)) for the entry C[C@@H](O)[C@H]1C(=O)N2C(C(=O)O)=C(SCCN=CN)C[C@H]12 [MK 0787 (N-Formimidoyl-thienamycin), N-Formimidoyl-thienamycin]
output: 15

input: Find RSAI (PSE-4 (Pseudomonas aeruginosa)) for the entry Cc1onc(-c2ccccc2Cl)c1C(=O)N[C@@H]1C(=O)N2[C@@H]1SC(C)(C)[C@@H]2C(=O)O [Cloxacillin]
output: 3.3

input: Find RSAI (PSE-4 (Pseudomonas aeruginosa)) for the entry CC1(C)S[C@@H]2[C@H](NC(=O)[C@H](C(=O)O)c3ccsc3)C(=O)N2[C@H]1C(=O)O [Ticar-cillin, ticarcillin]
output: 0.65

input: Find RSAI (PSE-4 (Pseudomonas aeruginosa)) for the entry CC1(C)S[C@@H]2[C@H](NC(=O)[C@H](N)c3ccccc3)C(=O)N2[C@H]1C(=O)O [Ampi-cillin, ampicillin]
output: 2.7

input: Find RSAI (PSE-4 (Pseudomonas aeruginosa)) for the entry CC(C)(O/N=C(\C(=O)N[C@@H]1C(=O)N2C(C(=O)[O-])=C(C[n+]3ccccc3)CS[C@H]12)c1csc(N)n1)C(=O)O [Ceftazidime (GR 20,263), Ceftazidime]
output: 420

Attribution: patent EP0059645A1
